Where do these numbers come from? They come from ChEMBL document CHEMBL1201862.

tested on: HCC 2998; assay: NCI tumour cell line growth inhibition, 48 h
Activity calls are given as the source filed them. No stated cut-off is given here; in the data, active = GI50 up to about 1.1 µM and inactive = higher.

molecule: O=C1c2ccccc2C(=O)C12CCc1ccccc12
GI50: > 100 µM (inactive)
//
molecule: O=C(c1c(O)cc(O)cc1O)C1Cc2ccccc21 (stereo unspecified)
GI50: > 100 µM (inactive)
//
molecule: COc1ccc(/C=N/NC(=O)c2ccccc2Nc2ccccc2C(=O)N/N=C/c2ccc(OC)c(OC)c2)cc1OC
GI50: > 100 µM (inactive)
//
molecule: Oc1c(Cl)c(Cl)c(O)c(CCNc2ccc3ncccc3c2)c1Cl
GI50: 12.9 µM (inactive)
//
molecule: Cc1c(C)c2c(c(N)c1C#N)C(=O)N(CCN1CCNCC1)C2=O
GI50: 31.6 µM (inactive)
//
molecule: O=S(=O)(N/C(=N\O)Nc1ccc(Cl)cc1)c1ccc(S(=O)(=O)c2ccccc2)s1
GI50: 14.3 µM (inactive)
//
molecule: O=C(NN1C(=O)CS(=O)(=O)C1c1ccc(C(F)(F)F)cc1)c1ccncc1 (stereo unspecified)
GI50: > 100 µM (inactive)
//
molecule: O=C1c2cc([N+](=O)[O-])ccc2NC2C(O)c3ccccc3N12 (stereo unspecified)
GI50: 47.9 µM (inactive)
//
molecule: CCCC(=O)NC(Nc1cc(C)ccn1)(C(=O)OCC)C(F)(F)F (stereo unspecified)
GI50: > 100 µM (inactive)
//
molecule: COc1c(CC(C)=O)c2ccccc2n1C(C)=O
GI50: > 100 µM (inactive)
//
molecule: CC1CN=C(Nc2cccc(F)c2)S1 (stereo unspecified)
GI50: > 100 µM (inactive)

====

system: HCT-116; assay: NCI tumour cell line growth inhibition, 48 h
The source made the active and inactive calls. Cut-off read from the data, not from the text of the source: active = GI50 up to about 1.1 µM and inactive = higher.
observation type: GI50

compound: O=[N+]([O-])c1ccc2c(c1)Sc1ccccc1N2CCCCCl
experimental value: > 100 µM (inactive)
//
compound: COc1ccc(/C=C2\CN(C)CC3C2=NC(=S)NC3c2ccc(OC)cc2)cc1 (centres undefined)
experimental value: 3.43 µM (inactive)
//
compound: Cc1cc(C)nc(NS(=O)(=O)c2ccc(Nc3c4ccccc4nc4c(C(=O)Nc5ccc(S(=O)(=O)N=C(N)N)cc5)ccc(Cl)c34)cc2)n1
experimental value: 21.9 µM (inactive)
//
compound: O=C(c1ccccc1)c1ccc(OCCOc2ccc(Nc3ccccc3)cc2)cc1
experimental value: 69.2 µM (inactive)
//
compound: Clc1ccc(C(OCn2ccnc2)c2nc3ccccc3[nH]2)c(Cl)c1 (centres undefined)
experimental value: 33.8 µM (inactive)
//
compound: CC[C@]12C=CCN3CC[C@@]4(c5cc(N=O)c(OC)cc5N(C)[C@H]4[C@@](O)(C(=O)NC(Cc4c[nH]c5ccccc45)C(=O)OC)[C@@H]1O)[C@@H]32 (some centres undefined)
experimental value: 12.9 µM (inactive)
//
compound: C/C(CC(=O)Nc1cccc(Cl)c1C)=N\NC(N)=S
experimental value: > 100 µM (inactive)
//
compound: O=C(Nc1cccc(Cl)c1)Nn1cnnc1
experimental value: > 100 µM (inactive)
//
compound: O=C(OC(=O)n1ccc2ccccc21)n1ccc2ccccc21
experimental value: > 100 µM (inactive)

====

test system: CCRF-CEM; test: NCI tumour cell line growth inhibition, 48 h
Activity calls are given as the source filed them. Cut-off read from the data, not from the text of the source: active = GI50 up to about 1.1 µM and inactive = higher.
Labels: 1 (yes) = active, 0 (no) = inactive

compound: Cc1csc2nc(-c3ccc(Cl)c([N+](=O)[O-])c3)c(/C=N/NC(=N)N)n12
measured target: CCRF-CEM
discrete label: 1 (yes)
--
compound: COc1ccc(SCc2cc(OC)ccc2OC)cc1
measured target: CCRF-CEM
discrete label: 0 (no)
--
compound: C[N+](C)(C)C(C1=CCCC1=O)c1ccccc1 (stereo unspecified)
measured target: CCRF-CEM
discrete label: 0 (no)
--
compound: O=C(c1nc2ccccc2nc1O)C(O)c1ccccc1 (stereo unspecified)
measured target: CCRF-CEM
discrete label: 0 (no)
--
compound: CCCNCCCC(NC(C)=O)C(=O)NCc1ccccc1 (stereo unspecified)
measured target: CCRF-CEM
discrete label: 0 (no)
--
compound: CC(C)(c1cn(Cc2ccccc2)c2ccccc12)c1cn(Cc2ccccc2)c2ccccc12
measured target: CCRF-CEM
discrete label: 0 (no)
